The reported numbers originate from patent US20200407370A1.

ASSAY SUMMARY: Pharmacokinetics (PK) of the compound in rats
Type: in vivo
STUDY CONDITIONS: rat, plasma; SD rats, PO 5 mg/kg, n = 3; read-out: AUClast po (area under concentration-time curve 0-24 h)
MEASURE: AUC(0-t) (ng·h/mL)
Give your result in ng·h/mL as a bare value.

Record excerpt, results attached:
COc1cc(C(=O)N2CCC[C@@H](N)C2)cc2nc(-c3cc4ccsc4n3CC3CCC3)n(C)c12 = 13500
CCn1c(-c2nc3cc(C(=O)N4CCC[C@@H](N)C4)cc(OC)c3n2C)cc2ccsc21 = 934
COc1cc(C(=O)N2CCC[C@@H](N)C2)cc2nc(-c3cc4ccsc4n3CC3CC3)n(C)c12 = 2360

Now let's try a different one.
// query Can you look up the measured AUC(0-t) of COc1cc(C(=O)N2CCC[C@@H](N)C2)cc2nc(-c3cc4ccsc4n3CC(C)C)n(C)c12 for me?
// result 11200

====

ASSAY SUMMARY: Pharmacokinetics (PK) of the compound in rats
Format: in vivo
STUDY CONDITIONS: rat, plasma; SD rats, IV 1 mg/kg, PO 5 mg/kg, n = 3; read-out: F (absolute bioavailability)
MEASURE: bioavailability (%)
Give your result in % as a bare value.

Record excerpt, results attached:
COc1cc(C(=O)N2CCC[C@@H](N)C2)cc2nc(-c3cc4cc(C)sc4n3CC3CC3)n(C)c12 = 31.2
COc1cc(C(=O)N2CCC[C@@H](N)C2)cc2nc(-c3cc4ccsc4n3CC3CCC3)n(C)c12 = 35
CCn1c(-c2nc3cc(C(=O)N4CCC[C@@H](N)C4)cc(OC)c3n2C)cc2ccsc21 = 15.6
COc1cc(C(=O)N2CCC[C@@H](N)C2)cc2nc(-c3cc4ccsc4n3CC(C)C)n(C)c12 = 71.2
CCn1c(-c2nc3cc(C(=O)N4CCC[C@@H](N)C4)cc(OC)c3n2C)cc2cccnc21 [Compound GSK199, reference compound] = 33.1

// query Can you look up the measured bioavailability of COc1cc(C(=O)N2CCC[C@@H](N)C2)cc2nc(-c3cc4ccsc4n3CC3CC3)n(C)c12 for me?
// result 46.6

// query Can you look up the measured bioavailability of COc1cc(C(=O)N2CCC[C@@H](N)C2)cc2nc(-c3cc4ccsc4n3CC(F)(F)F)n(C)c12 for me?
// result 33.3

// query Can you look up the measured bioavailability of CCn1c(-c2nc3cc(C(=O)N4CCC[C@@H](N)C4)cc(OC)c3n2C)cc2cc(C)sc21 for me?
// result 41.8

====

Measured microsomal CLint at 1 μM of individual entries
ASSAY SUMMARY: Liver microsomal stability in human
Format: in vitro ADME
STUDY CONDITIONS: human liver microsomes, 0.5 mg protein/mL, 1 μM compound, 37° C.
Give your result in µL/min/mg as a bare value.

Record excerpt, results attached:
CCn1c(-c2nc3cc(C(=O)N4CCC[C@@H](N)C4)cc(OC)c3n2C)cc2cccnc21 [Compound GSK199, reference compound] = 5.2
CCn1c(-c2nc3cc(C(=O)N4CCC[C@@H](N)C4)cc(OC)c3n2C)cc2ccoc21 [Compound 4] = 2
COc1cc(C(=O)N2CCC[C@@H](N)C2)cc2nc(-c3cc4ccsc4n3CC3CC3)n(C)c12 [Compound 18] = 6.6

Now let's try a different one.
// query Can you look up the measured microsomal CLint at 1 μM of CCn1c(-c2nc3cc(C(=O)N4CCC[C@@H](N)C4)cc(OC)c3n2C)cc2ccsc21 [Compound 3] for me?
// result 5
